Numbers sourced from patent EP0535155B1.

- protocol: physchem
- conditions_used: buffer or solvent, pH 8
Where a SMILES comes first, the peptide text is derived from it. The star is where a group is joined. Fmoc = O=C(OCC1c2ccccc2-c2ccccc21)*

molecule	remaining at 5 min, 0.476 mg/mL / %
CC(C)C[C@H](NC(=O)OCC1c2ccccc2-c2ccccc21)C(=O)N[C@@H](CC(=O)O)C(=O)N[C@@H](Cc1ccccc1)C(=O)N[C@@H](CO)C(=O)N[C@@H](CCCCN)C(=O)NCC(=O)O [PEPTIDE, FMOC-LDFSKG-OH] (Fmoc-LDFSKG-OH)	100

---

- protocol: physchem
- conditions_used: buffer or solvent, pH 8
Where a SMILES comes first, the peptide text is derived from it. The star is where a group is joined. Fmoc = O=C(OCC1c2ccccc2-c2ccccc21)*

compound	remaining at 10 min, 0.476 mg/mL, %
CC(C)C[C@H](NC(=O)OCC1c2ccccc2-c2ccccc21)C(=O)N[C@@H](CC(=O)O)C(=O)N[C@@H](Cc1ccccc1)C(=O)N[C@@H](CO)C(=O)N[C@@H](CCCCN)C(=O)NCC(=O)O [PEPTIDE, FMOC-LDFSKG-OH] (Fmoc-LDFSKG-OH)	100

---

- System: chymotrypsin
- protocol: in vitro
- conditions_used: isolated enzyme chymotrypsin, pH 8
Where a SMILES comes first, the peptide text is derived from it. The star is where a group is joined. Fmoc = O=C(OCC1c2ccccc2-c2ccccc21)*

molecule	unit_info	remaining at 3 h, 0.476 mg/mL
CC(C)C[C@H](NC(=O)OCC1c2ccccc2-c2ccccc21)C(=O)N[C@@H](CC(=O)O)C(=O)N[C@@H](Cc1ccccc1)C(=O)N[C@@H](CO)C(=O)N[C@@H](CCCCN)C(=O)NCC(=O)O [PEPTIDE, FMOC-LDFSKG-OH] (Fmoc-LDFSKG-OH)	%	0

---

- Test system: chymotrypsin
- protocol: in vitro
- conditions_used: isolated enzyme chymotrypsin, pH 8
Where a SMILES comes first, the peptide text is derived from it. The star is where a group is joined. Fmoc = O=C(OCC1c2ccccc2-c2ccccc21)*

molecule	target_under_test	metabolised at 10 min, 0.476 mg/mL
CC(C)C[C@H](NC(=O)OCC1c2ccccc2-c2ccccc21)C(=O)N[C@@H](CC(=O)O)C(=O)N[C@@H](Cc1ccccc1)C(=O)N[C@@H](CO)C(=O)N[C@@H](CCCCN)C(=O)NCC(=O)O [PEPTIDE, FMOC-LDFSKG-OH] (Fmoc-LDFSKG-OH)	chymotrypsin	~60%

---

- Tested on: chymotrypsin
- protocol: Proteolysis of peptoids and peptides by chymotrypsin (RP-HPLC)
- conditions_used: chymotrypsin (isolated protease) in Tris buffer, pH 8
Where a SMILES comes first, the peptide text is derived from it. The star is where a group is joined. Fmoc = O=C(OCC1c2ccccc2-c2ccccc21)*

molecule	unit_info	remaining at 10 min, 0.476 mg/mL
CC(C)C[C@H](NC(=O)OCC1c2ccccc2-c2ccccc21)C(=O)N[C@@H](CC(=O)O)C(=O)N[C@@H](Cc1ccccc1)C(=O)N[C@@H](CO)C(=O)N[C@@H](CCCCN)C(=O)NCC(=O)O [PEPTIDE, FMOC-LDFSKG-OH] (Fmoc-LDFSKG-OH)	%	41

---

- Tested on: trypsin
- protocol: Proteolysis of peptoids and peptides by trypsin (RP-HPLC)
- conditions_used: trypsin (isolated protease) in Tris buffer, pH 8
Where a SMILES comes first, the peptide text is derived from it. The star is where a group is joined. Fmoc = O=C(OCC1c2ccccc2-c2ccccc21)*
endpoint: remaining at 5 min, 0.476 mg/mL (%)

compound	endpoint	measurement
CC(C)C[C@H](NC(=O)OCC1c2ccccc2-c2ccccc21)C(=O)N[C@@H](CC(=O)O)C(=O)N[C@@H](Cc1ccccc1)C(=O)N[C@@H](CO)C(=O)N[C@@H](CCCCN)C(=O)NCC(=O)O [PEPTIDE, FMOC-LDFSKG-OH] (Fmoc-LDFSKG-OH)	remaining at 5 min, 0.476 mg/mL	0
